assay: Inhibition of Saccharomyces sp. alpha-glucosidase using p-nitrophenyl a-D-glucopyranoside as substrate by spectrophotometric analysis; settings: read-out: IC50
observable: IC50 (µM)
Number in µM, nothing else.

Record request: IC50 value, item "OC[C@H]1NC[C@H](O)[C@@H](O)[C@@H]1O"
422
